Reference source: PubChem BioAssay

Recorded z-score, one value per entry.
assay: JC-1 mitochondrial signal, unstimulated myeloma cells – cell-based, JC-1 fluorescence, RPMI8226, 24 h, 100 nL compound, profiling panel (AID 1169); conditions: JC-1 mitochondrial potential fluorescence, higher = more signal

| compound | z-score |
| --- | --- |
| COc1ccc([Si](C)(C)[C@@H]2[C@@H](CCO)O[C@]3(C(=O)N(Cc4ccccc4)c4ccc(N5CCOC5=O)cc43)[C@H]2C)cc1 | -0.947 |
| CN1C(=O)C2C=CC(C(O)c3cccn3C)N(Nc3ccc([N+](=O)[O-])cc3[N+](=O)[O-])C2C1=O (centres undefined) | 0.647 |
| CCCCC(=C=CC[C@H](O)c1ccc(OCCO)cc1)CCO | -0.573 |
| O=C1C2C=CC(C(O)C3CC=CCC3)N(Nc3ccccc3)C2C(=O)N1c1ccccc1 (centres undefined) | 0.173 |

###

Reported composite z-score values are given for each entry in this list.
target: Fibroblast growth factor 2 (Homo sapiens); experiment: basic fibroblast growth factor binding to printed compounds – biochemical, small-molecule microarray, 635/667 nm fluorescence, primary screen (AID 1133); conditions: FGF2, fluorescence 635/667, higher = more signal
observed property: composite z-score

| molecule | observed property | endpoint value |
| --- | --- | --- |
| CC(C)(C)OC(=O)CC[C@@]1(C(=O)NCC(O)CO)N=C(c2ccc(OCCCO)cc2)O[C@@H]1c1ccccc1CN=[N+]=[N-] (stereo not given in full) | composite z-score | 0.337 |
| O=C(O)[C@@H]1C[C@@H]2C(=O)N3CCC[C@H]3C(=O)N2[C@@H]1c1ccc(O)cc1 | composite z-score | 1.07 |
| O=C(NCc1ccc(F)cc1)[C@H]1C[C@H]2C(=O)NCC(=O)N2[C@H]1c1ccc(O)cc1 | composite z-score | 1.89 |
| CCCCCCc1nc(Cc2cc(OC)c(OC)c(OC)c2)cc2c1[Si](C(C)C)(C(C)C)OC2 | composite z-score | 0.521 |
| Oc1ccc2cc[n+](Cc3cc4c(cc3Br)OCO4)cc2c1 | composite z-score | -0.387 |
| O=C1NC(=O)C2C1C=CC(C(O)c1ccco1)N2Nc1ccc(Cl)cc1Cl (stereo not given) | composite z-score | -0.311 |
| CCCC=C(CCC)[C@@H](NS(=O)(=O)CC12CCC(CC1=O)C2(C)C)c1ccc(C(=O)OC)cc1 (stereo not given in full) | composite z-score | -0.056 |
| COc1ccc([Si](C)(C)[C@@H]2[C@@H](CCO)O[C@]3(C(=O)N(Cc4cccc(NC(=O)[C@H](C)O)c4)c4ccccc43)[C@H]2C)cc1 | composite z-score | 0.957 |
| C=CCOC(=O)[C@@H]1[C@H]2C(=O)O[C@H](c3ccccc3)[C@H](c3ccccc3)N2[C@H](c2ccc(OCCOC(=O)[C@@H]3C[C@@H]4C(=O)N[C@@H](CCCC[N+](C)(C)C)C(=O)N4[C@@H]3c3ccc(O)cc3)cc2)[C@@]12C(=O)Nc1ccc(I)cc12 | composite z-score | 1.24 |
| COc1cccc(C)c1NC(=O)O[C@H]1[C@H](OC(=O)Nc2ccc3c(c2)OCO3)[C@@H](OC(=O)Nc2ccc3c(c2)OCO3)[C@@H](OC)O[C@@H]1CO | composite z-score | 0.887 |
| CCCN1C(=O)[C@]2(Cc3ccccc31)N=C(c1ccc(OCCCO)cc1)O[C@@H]2c1ccccc1 | composite z-score | 0.716 |
| C=CCC(OC(C)=O)[C@@H]1[C@@H](N(Cc2cc3ccccc3o2)C(=O)Cc2ccc(F)cc2)c2cc(OCCCO)ccc2N1C(=O)Cc1ccc2ccccc2c1 (stereo not given in full) | composite z-score | -0.408 |
| CCC#CCN(Cc1ccccc1Br)[C@H](/C=C/C1CC1)[C@@H](O)Cc1ccccc1 | composite z-score | -0.984 |
| COc1cc(NN2C(C(O)c3ccc(N(C)C)cc3)C=CC3C(=O)N(c4ccccc4)C(=O)C32)cc(OC)c1OC (stereo not given) | composite z-score | -0.223 |
| CCOC(=O)C1=C[C@@H](c2ccccc2)N(S(=O)(=O)c2ccc(C)cc2)[C@H]1c1ccc(OC)cc1 | composite z-score | 0.217 |

###

assay: compound effects on multiple myeloma cell viability – MM1S, calcein-AM fluorescence, 48 h, basal, profiling panel (AID 1165); settings: higher = more signal;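 further: viability of MM1S multiple myeloma cells under basal unstimulated conditions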

| molecule | z-score |
| --- | --- |
| CCCN1C(=O)[C@@]2(Cc3ccccc31)N=C(c1ccc(OCCCO)cc1)O[C@H]2c1ccccc1 | -3.51 |
| CC(CO)N1C(=O)[C@]2(C)C3C(=O)OCCC/C=C\[C@H]3OC23C=CCN(c2ccc(Cl)cc2)C(=O)[C@@H]13 (some centres undefined) | 1.77 |
| COc1ccccc1CN1C(=O)c2ccccc2[C@](Cc2ccccc2I)(C(=O)O)[C@@H]1c1ccc(CO)cc1 | -0.616 |
| CN(C)CCCCCCNC(=O)[C@@H]1C[C@@H]2C(=O)N3CCC[C@H]3C(=O)N2[C@@H]1c1cccc(OCCO)c1 | -0.592 |

###

test system: XIP peptide (Xip251-270); experiment: compounds binding XIP fragment 251-270 – biochemical, small-molecule microarray, fluorescence 635/667 nm, 0.5 µg/mL protein, primary screen (AID 1183); details: fluorescence 635 nm, higher = more signal
Returns one of T or F; T when composite z-score is >= 0.2.

| compound | classification |
| --- | --- |
| CCCCCCCCCCC(O)C1C=CC2C(=O)N(c3ccccc3)C(=O)C2N1Nc1ccc(C#N)cc1 (stereo not given) | T |
| CC(C)[Si](C#CCCCC#N)(O[C@H](c1ccccc1)c1cn(Cc2ccccc2)nn1)C(C)C | T |
| NC(=O)[C@H]1[C@@H]2C(=O)O[C@@H](c3ccccc3)[C@@H](c3ccccc3)N2[C@@H](c2ccc(OCCO)cc2)[C@]12C(=O)Nc1ccc(C#CCCO)cc12 | T |
| CCCCNC(=O)c1ccc(C#CC(C)(C)C)c(OC(C)=O)c1 | T |
| CCCCC[C@H]1OC[C@@]23C=C(Br)[C@@H](CC12)[C@@]1(CO1)C3=O (stereo not given in full) | F |

###

assay: Pseudomonas biofilm growth suppression – PAO1 strain, BacTiter-Glo luminescence, LB-PBS, primary screen (AID 1144); details: P. aeruginosa PAO1 biofilm, 12 h, higher = more signal
Could you label it Fulfilled if measured z-score is -0.2 or higher, and Not fulfilled otherwise?

| compound | classification |
| --- | --- |
| C=CCNC(=O)[C@H]1[C@@H]2C(=O)O[C@@H](c3ccccc3)[C@@H](c3ccccc3)N2[C@@H](c2ccccc2OCCO)[C@]12C(=O)N(C(=O)OCCOC)c1ccc(C#CC3(O)CCCCCC3)cc12 | Not fulfilled |
| C=C(COC)/C(=C/C[C@H](OC(=O)c1ccncc1)c1ccc(CO)o1)c1cnc2ccccc2c1 | Not fulfilled |
| NCCCCCCNC(=O)[C@@H]1C[C@@H]2C(=O)N[C@@H](CCCCN)C(=O)N2[C@@H]1c1ccc(O)cc1 | Not fulfilled |
| CC1CC/C=C\[C@H]2OC34C=CCN(c5ccc6ccccc6c5)C(=O)[C@H]3N(CCCO)C(=O)[C@@H]4C2C(=O)O1 (some centres undefined) | Fulfilled |
| CCCCCC1=C2CNC(C)(C(=O)OC)C=C2C(C)C1=O (centres undefined) | Fulfilled |
| CC(C)N1C(=O)c2ccccc2[C@@H](C(=O)NCCN2CCOCC2)[C@@H]1c1ccc(CO)cc1 | Fulfilled |
| O=C1O[C@@H](c2ccccc2)[C@@H](c2ccccc2)N2[C@@H](c3ccc(O)cc3)[C@]3(C(=O)Nc4ccc(C#CCCO)cc43)[C@@H](C(=O)N3CCN(c4ncccn4)CC3)[C@H]12 | Not fulfilled |
| CC(=O)N1CC2(CC2)CC1c1ccccc1 (centres undefined) | Fulfilled |
| C=CCNC(=O)[C@@H]1[C@H]2C(=O)O[C@H](c3ccccc3)[C@H](c3ccccc3)N2[C@H](c2ccccc2OCCO)[C@@]12C(=O)Nc1ccc(C#CCC(C(=O)OC)C(=O)OC)cc12 | Fulfilled |
| CCOC(=O)C[C@H]1[C@H](OC(=O)c2ccc(C(=O)c3ccccc3)cc2)[C@@H](NC(=O)c2ccc(-c3ccccc3)cc2)c2cc(OCCCO)ccc2N1C(=O)Cc1ccc(OC)cc1 | Not fulfilled |
| CC(C)C[C@@H]1NC(=O)[C@@H]2C[C@H](C(=O)NCCCCCCN)[C@H](c3cccc(OCCO)c3)N2C1=O | Not fulfilled |
| COC(=O)c1c(CC[C@@H](CO)NC(=O)N2CCC[C@H]2Cn2cc(C3(O)CCCCC3)nn2)oc(C(C)=O)c1C(=O)OC | Fulfilled |
| [N-]=[N+]=Nc1ccccc1[C@@H]1OC(c2ccc(OCCCO)cc2)=N[C@]1(Cc1ccccc1)C(=O)O | Fulfilled |
| CCOC(=O)C[C@H]1[C@H](OC(=O)c2ccccc2-c2ccccc2)[C@@H](NC(=O)c2ccc3ccccc3c2)c2cc(OCCCO)ccc2N1C(=O)c1ccccc1 | Fulfilled |
